System: myosin ATPase, Rabbit Psoas myofibrils
Assay: Myofibril ATPase assay, rabbit psoas (skeletal) myofibrils
Assay type: biochemical
Settings: concentration required to reduce myosin ATP-ase activity by 25%; Rabbit Psoas Prep pCa 25 GEOM_MEAN
Procedure: [Worded in the source for another species; this species is reported under the same test.] Myofibril ATPase assays are known in the art to be useful in evaluating small molecules for the treatment of HCM and other cardiac indications. Myosin ATPase activity is assessed by using a coupled reaction system, in which ADP generated by the myosin ATPase function is coupled to the disappearance of NADH through the pyruvate kinase/lactate dehydrogenase (PK-LDH) system. ATPase activity produces ADP, which is used as a substrate for PK to produce pyruvate and regenerate ATP. […]
Quick rule for you: Rabbit Psoas EC25 (Y75 value) at 2000 nM or higher means y, lower means n.

Known results for molecules:
{"molecule": "O=C(Cn1c(=O)[nH]c2ccccc2c1=O)NC(CO)c1ccc(F)cc1F (centres unmarked)", "qualitativeLabel": "n"}
{"molecule": "Cc1nccc2[nH]c(=O)n(CC(=O)N[C@H](C)c3ncc(C#N)cc3F)c(=O)c12 (single isomer, unassigned)", "qualitativeLabel": "y"}
{"molecule": "C[C@@H](NC(=O)C1(n2c(=O)[nH]c3ccc(F)c(F)c3c2=O)CC1)c1ncc(C#N)cc1F (single isomer, unassigned)", "qualitativeLabel": "y"}
{"molecule": "C[C@H](NC(=O)[C@@H](C)n1c(=O)[nH]c2cccc(O)c2c1=O)c1ccc(F)cc1F (single isomer, unassigned)", "qualitativeLabel": "n"}
{"molecule": "C[C@H](NC(=O)[C@H](C)n1c(=O)[nH]c2ccc(F)c(F)c2c1=O)c1ccc(F)cc1F", "qualitativeLabel": "n"}
{"molecule": "Cc1c(F)ccc2[nH]c(=O)n(CC(=O)N[C@@H]3CCc4cc(C#N)cnc43)c(=O)c12 (single isomer, unassigned)", "qualitativeLabel": "n"}
{"molecule": "C[C@H](NC(=O)Cn1c(=O)[nH]c2cc(C(F)(F)F)ccc2c1=O)c1ccc(F)cc1F", "qualitativeLabel": "y"}
{"molecule": "Cc1c(F)ccc2[nH]c(=O)n(CC(=O)N[C@@H](C)c3ccc(C#N)cn3)c(=O)c12 (single isomer, unassigned)", "qualitativeLabel": "n"}
{"molecule": "C[C@H](NC(=O)Cn1c(=O)[nH]c2cccc(F)c2c1=O)c1ccc(F)cc1F", "qualitativeLabel": "n"}
{"molecule": "C[C@@H](NC(=O)Cn1c(=O)[nH]c2ccc(F)cc2c1=O)c1ncc(C#N)cn1 (single isomer, unassigned)", "qualitativeLabel": "n"}

Determine whether measured Rabbit Psoas EC25 (Y75 value) meets or exceeds 2000 nM for C[C@H](NC(=O)C1(n2c(=O)[nH]c3ccc(F)c(F)c3c2=O)CC1)c1ncc(C#N)cc1F (single isomer, unassigned)
n

Determine whether measured Rabbit Psoas EC25 (Y75 value) meets or exceeds 2000 nM for Cc1ccc(C(NC(=O)Cn2c(=O)[nH]c3ccccc3c2=O)c2ccccc2)cc1C (centres unmarked)
y

Determine whether measured Rabbit Psoas EC25 (Y75 value) meets or exceeds 2000 nM for C[C@H](NC(=O)Cn1c(=O)[nH]c2c(F)cccc2c1=O)c1ccc(F)cc1F
y

Determine whether measured Rabbit Psoas EC25 (Y75 value) meets or exceeds 2000 nM for C[C@H](NC(=O)Cn1c(=O)[nH]c2ccc(F)c(F)c2c1=O)c1ccc(F)cc1F
n
